system: Hs-578T; assay: NCI tumour cell line growth inhibition, 48 h
Activity calls are given as the source filed them. Rule as the data show it: active = GI50 up to about 1.1 µM and inactive = higher.
Measured property: GI50

> print(dat)
                                    molecule  measured.property                result
 1  S=c1nc(Nc2ccc(Cl)cc2)c2c3c(sc2[nH]1)CCCC3               GI50   > 100 µM (inactive)
 2  CC1(C(=O)O)C[C@](C)(C(=O)OCc2ccccc2)C[C@](C)(C(=O)OCc2ccccc2)C1 (stereo partly specified)               GI50    30.3 µM (inactive)
 3  CN(Cc1cc(Cl)cc(Cl)c1)CC(C(=O)c1ccccc1)c1ccccc1 (stereo unspecified)               GI50    3.15 µM (inactive)
 4                 CN(NC(=O)c1cccs1)C1=NCCN1               GI50   > 100 µM (inactive)
 5  C/C=C(\C)C(=O)OC1C2C(C)C(=O)OC2C(O)C(C)C2C=CC(=O)C21C (stereo unspecified)               GI50    13.3 µM (inactive)
 6  COC(=O)[C@H](Cc1ccccc1)NC(=O)c1ccc(CNC(=O)/C=C/c2ccc(-c3ccccc3)cc2)cc1               GI50    22.8 µM (inactive)
 7  COc1cc(-c2[o+]c3cc(O)cc(O)c3cc2O)cc(O)c1O               GI50   > 100 µM (inactive)
 8  CCCCC(=O)OC[n+]1cccc(-c2c(COC(=O)NC(C)C)c(COC(=O)NC(C)C)c3n2CCC3)c1               GI50  > 50.6 µM (inactive)
 9  O=C1Oc2ccccc2C(=O)/C1=C/N1C(=O)N/C(=C\c2ccccc2O)C1=O               GI50  > 53.1 µM (inactive)
10  CC1=NNC(=O)C1C1CC(c2c[nH]c3ccccc23)=NN(C(N)=O)C1=O (stereo unspecified)               GI50    85.1 µM (inactive)
11  O=c1c2c3c(sc2nc2n1N=C(c1ccc(Cl)cc1)CS2)CCCC3               GI50   > 100 µM (inactive)
12  COc1ccc(-n2nnnc2C2(Nc3ccccc3)CCN(Cc3ccccc3)CC2)cc1               GI50    4.51 µM (inactive)
13  Nc1ccc(S(=O)(=O)Nc2ccc(Nc3c4ccccc4nc4ccccc34)cc2)cc1               GI50    1.86 µM (inactive)
14    COC(=O)CC(=O)Nc1sccc1S(=O)(=O)c1ccccc1               GI50   > 100 µM (inactive)
15          COc1cc2nc(-c3ccccc3)cc(O)c2cc1OC               GI50    25.1 µM (inactive)
16  Cc1c(C(=O)N2CCN(c3ccc([N+](=O)[O-])cc3)CC2)[n+]([O-])c2cc(Cl)c(Cl)cc2[n+]1[O-]               GI50    22.6 µM (inactive)
17  CC(=O)O[C@@H]1C[C@]2(C(=O)c3ccccc3)C(=O)C(=O)S[C@]12c1ccccc1               GI50    39.5 µM (inactive)
18                       Cc1nnc2n(c1=O)CCN2C               GI50   > 100 µM (inactive)
19  CCOc1ccc(/N=N/C2C(=O)N(C(=O)CC(=O)Nc3ccc(C)cc3)N=C2C)cc1 (stereo unspecified)               GI50    5.73 µM (inactive)
20  CC1=NN(C(=O)CSc2nnc(SCC(=O)N3N=C(C)CC3(O)c3ccccc3)s2)C(O)(c2ccccc2)C1 (stereo unspecified)               GI50    36.3 µM (inactive)
21          COC(=O)C#Cc1ccc([N+](=O)[O-])cc1               GI50    2.84 µM (inactive)

----------
tested on: A498; assay: NCI tumour cell line growth inhibition, 48 h
Activity calls are given as the source filed them. Rule as the data show it: active = GI50 up to about 1.1 µM and inactive = higher.
Measured GI50 of individual entries
Measured property: GI50

> print(dat)
                                   compound  measured.property               result
1                 CC#COS(=O)(=O)c1ccc(C)cc1               GI50   > 10 µM (inactive)
2  CCC1(c2ccc(N3C(=O)c4cc(OC)c(OC)cc4C3=O)cc2)CCC(=O)NC1=O (stereo not given)               GI50   > 10 µM (inactive)
3  CC(=O)Oc1c(-c2ccccc2)[nH]c2cc([N+](=O)[O-])c(/C(Cl)=C/c3ccccc3)cc12               GI50   2.88 µM (inactive)
4  CC(C)OC(=O)C1=C2c3ncccc3C(=O)N2[C@@H](Cl)[C@@H](Cl)[C@@H]1Cl               GI50  > 100 µM (inactive)
5  Nc1cc2c(nnn2C2OC(COCc3ccccc3)C(OCc3ccccc3)C2OCc2ccccc2)c(=O)[nH]1 (stereo not given)               GI50   48.8 µM (inactive)

----------
test system: MOLT-4; test: NCI tumour cell line growth inhibition, 48 h
Active and inactive are the calls of the source. No stated cut-off is given here; in the data, active = GI50 up to about 1.1 µM and inactive = higher. Peptide text beside a SMILES is read from it.
Measured GI50 of individual entries

Compound	GI50
O=S1(=O)[C@H](c2ccccc2)c2c(-c3ccccc3)sc(-c3ccccc3)c2[C@@H]1c1ccccc1	> 100 µM (inactive)
N=C1CCCC1C(=S)SCCC(N)=O (stereo not given)	> 100 µM (inactive)
COc1ccc(-n2nnnc2C2(Nc3ccccc3)CCN(Cc3ccccc3)CC2)cc1	5.04 µM (inactive)
[O-][N+]1=C(c2ccccc2)/C(=C2/C(c3ccccc3)=[N+]([O-])c3ccccc32)Cc2ccccc21	22.8 µM (inactive)
COC(=O)/C=C(/C(=O)OC)C1(C)c2cc(C(=O)OC)c(C(=O)OC)c(N)c2C(=N)N1c1ccccc1 (stereo not given)	17.8 µM (inactive)
CC(C)OC(=O)C1(C(C)C)CCc2ccc(C(=O)CCC(=O)O)cc21 (stereo not given)	> 100 µM (inactive)
COc1ccc(C(=O)C(CO)Oc2ccccc2OC)cc1OC (stereo not given)	> 100 µM (inactive)
FC1(F)SC2CCCCCCCCCCC2C1(F)F (stereo not given)	28.2 µM (inactive)
C=C1C(=O)OC2CCCCC3OC3C12 (stereo not given)	13.1 µM (inactive)
CC(C)CC(NC(=O)C(CC(C)C)NC(=O)C(Cc1c[nH]cn1)NC(=O)C(C)NC(=O)C(NC(=O)C(C)NC(=O)C(Cc1c[nH]c2ccccc12)NC(=O)C(CCC(=O)O)NC(=O)C(N)Cc1ccccc1)C(C)C)C(N)=O (stereo not given) (H-FEWAVAHLL-NH2; configuration not given here)	> 12.5 µM (inactive)

----------
system: UACC-257; experiment: NCI tumour cell line growth inhibition, 48 h
The source made the active and inactive calls. Rule as the data show it: active = GI50 up to about 1.1 µM and inactive = higher.
Classes used: label 1 for active, label 0 for inactive

> print(dat)
                                    molecule  label.class
 1   COC(C(=O)NN)c1ccccc1 (stereo not drawn)      label 0
 2  NC1=NC(NCC2(CO)CCC2)=CC(OCC2(CO)CCC2)N1 (stereo not drawn)      label 0
 3                 CN(NC(=O)c1cccs1)C1=NCCN1      label 0
 4   COc1ccc(CC(=O)NCCc2ccc(OC)c(OC)c2)cc1Br      label 0
 5  COC1/C=C\C=C(/C)C(=O)NC2=CC(=O)C(N)=C(CC(C)CC(OC)C(O)C(C)C=C(C)C1OC(N)=O)C2=O (stereo not drawn)      label 1
 6  c1ccc(C2SCc3nc4ccccc4n32)cc1 (stereo not drawn)      label 0
 7  N/C(=N\c1ccc(Cl)cc1)NS(=O)(=O)c1cc(Cl)c(Oc2ccc([N+](=O)[O-])cc2Cl)c(Cl)c1      label 0
 8  c1ccc2c3c([nH]c2c1)C1CCCN1CC3 (stereo not drawn)      label 0
 9    COC(=O)CC(=O)Nc1sccc1S(=O)(=O)c1ccccc1      label 0
10       Cc1ccccc1C(=O)Oc1ccc(OCc2ccccc2)cc1      label 0
11  C=CCC(SC)C1=C(C)C(=O)c2ccccc21 (stereo not drawn)      label 0
12  COc1ccc(/N=c2/[nH]c(N)c(C(=O)c3ccc(OC)cc3)s2)cc1      label 0
13            CN(C)/C=N/c1cc(=O)n(C)c(=O)n1C      label 0
14  COC(=O)/C=C(/C(=O)OC)C1(C)c2cc(C(=O)OC)c(C(=O)OC)c(N)c2C(=N)N1c1ccccc1 (stereo not drawn)      label 0
15  Cc1ccc(NC2=CC(=O)C(NO)c3ccccc32)cc1 (stereo not drawn)      label 0
16  COC(=O)[C@@]12CN(C)[C@@H](C(C)(C)C)N1C(=O)OC2c1ccccc1 (stereo partly drawn)      label 0
17  Nc1nc(N)c(CCCCc2ccccc2)c(/C=C/c2ccc([N+](=O)[O-])cc2)n1      label 0
18       O=Cc1cn(S(=O)(=O)c2ccccc2)c2ccccc12      label 0
19  O=C(Nc1ccc(Cl)cc1)c1cc([N+](=O)[O-])ccc1O      label 0
20  CCCCC(=O)OC[n+]1ccc(-c2c(COC(=O)NC(C)C)c(COC(=O)NC(C)C)c3n2CCC3)cc1      label 0
21                  CC(C)(NC1=NCCO1)c1ccccc1      label 0
22  CCOC(=O)C1=C(C)N(Cc2ccccc2)C2(O)C=CC(=O)C3C(=O)N(c4ccccc4)C(=O)C132 (stereo not drawn)      label 0
23  FC(F)(F)c1cccc(COCCN2CCN(Cc3cccc(C(F)(F)F)c3)CC2)c1      label 0

src = ChEMBL document CHEMBL1201862
